# Test system: Plasmodium falciparum Sir2 (PF13_0152, Sir2A)
# protocolText: pfSir2 binders on small-molecule microarrays, primary screen, biochemical, small-molecule microarray, 635 nm fluorescence (AID 1098);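 note: score merges spot fluorescence intensity with its signal-to-noise ratio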
# appliedConditions: small-molecule microarray binding, fluorescence 635 nm; higher = more signal
Please provide measured composite z-score for the entries that follow.
Numbers only.

Use the examples below as a reference point.
Give the measured composite z-score of "CC(C)NC(=O)[C@@H]1c2ccccc2C(=O)N(C2Cc3ccccc3C2)[C@H]1c1ccc(CO)cc1" .
0.959

Give the measured composite z-score of COc1cc(NN2C(C(O)c3ccco3)C=CC3C(=O)N(c4ccccc4)C(=O)C32)cc(OC)c1OC (stereo not drawn) .
1.69

Give the measured composite z-score of "O=C1c2ccccc2[C@](Cc2ccccc2I)(C(=O)NCCN2CCOCC2)[C@H](c2ccc(CO)cc2)N1C1CCCCC1" .
0.979

Give the measured composite z-score of "O=C1C[C@@](C(=O)NC2CC2)(c2ccc([N+](=O)[O-])cc2)[C@@H](c2ccc(CO)cc2I)N1C1CCCCC1" .
1.02

I would be grateful if you could provide composite z-score for each of the following entries.
1. CC(C)[Si](C#Cc1ccc(Oc2ccccc2)cc1)(O[Si](C#Cc1ccc(Oc2ccccc2)cc1)(C(C)C)C(C)C)C(C)C
2. COC(=O)[C@H](Cc1ccccc1)N1CC2=C[C@@H](C3CC3)n3c(=O)n(C)c(=O)n3[C@H]2[C@@H]1[C@@H](O)Cc1ccccc1
3. CC(C)C(=C=CC[C@@H](O)c1ccc(OCCO)cc1)C[C@@H](O)c1ccccn1
4. C=CCC(OC(C)=O)[C@@H]1[C@@H](N(Cc2ccc(-c3ccccc3)cc2)C(=O)c2ccc(-c3ccccc3)cc2)c2cc(OCCCO)ccc2N1C(=O)Cc1ccc2ccccc2c1 (stereo partly drawn)

1. 1.11
2. 0.711
3. 0.595
4. -0.316

----------
# System: Neuregulin-1 EGF-like domain
# protocolText: binders of neuregulin-1 EGF-like domain, primary screen, biochemical, small-molecule microarray, 635 nm fluorescence (AID 1081);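 note: binding of the protein to compounds printed on small-molecule microarray slides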
# appliedConditions: small-molecule microarray binding, higher = more signal
recordedMetric: composite z-score
One number for each entry.

Use the examples below as a reference point.
Give the measured composite z-score of "CCOC(=O)C[C@H]1[C@H](OC(=O)c2ccc(-c3ccccc3)cc2)[C@@H](NC(=O)Cc2ccc(OC)cc2)c2cc(OCCCO)ccc2N1C(=O)c1ccccc1" .
0.3

Give the measured composite z-score of "CCOC(=O)C1=C[C@@H](C(C)(C)C)N(S(=O)(=O)c2ccc(C)cc2)[C@H]1c1ccc(F)cc1" .
0.69

Give the measured composite z-score of "Cc1ccc(N2C(=O)c3ccccc3[C@@H](C(=O)NC3CC3)[C@@H]2c2ccc(CO)cc2)nc1" .
0.058

Give the measured composite z-score of "CC(C)OC(=O)C=C1C[C@@H](c2ccccn2)O[C@@H](c2ccccn2)O1" .
1.27

Give the measured composite z-score of "C=C(C(=O)CC[C@@H](OC(=O)c1cccnc1)c1ccccc1OCCO)C(C)C" .
0.624

Give the measured composite z-score of "COC(=O)[C@@]1(Cc2ccccc2)[C@H]2c3cc(C(=O)N4CCCC4)n(Cc4ccc(S(C)(=O)=O)cc4)c3C[C@H]2CN1C(=O)c1ccccc1" .
1.31

More entries:
Give the measured composite z-score of "NC(=O)[C@@H]1[C@H]2C(=O)O[C@H](c3ccccc3)[C@H](c3ccccc3)N2[C@H](c2ccc(O)cc2)[C@@]12C(=O)Nc1ccccc12" .
0.476

----------
# protocolText: PSAC antagonists in infected red cells, primary screen, cell-based, P. falciparum Indochina, OD700, 1 h (AID 1154)
# appliedConditions: P. falciparum Indochina infected RBC osmotic lysis, called active from +8 up or from −8 down
Activity calls are given as the source filed them.
Valid outcomes are listed here; reply with one: t (active), f (inactive)

What is the recorded call for this molecule in the test? "C=CCOC(=O)[C@@H]1[C@H]2C(=O)O[C@H](c3ccccc3)[C@H](c3ccccc3)N2[C@H](c2ccc(OCCOC(=O)[C@H]3C[C@H]4C(=O)N5CCC[C@H]5C(=O)N4[C@H]3c3ccc(O)cc3)cc2)[C@@]12C(=O)Nc1ccc(I)cc12"
f

What is the recorded call for this molecule in the test? "CCc1cccc(NC(=O)O[C@H]2[C@H](OC(=O)Nc3ccccc3-c3ccccc3)[C@@H](OC(=O)Nc3ccccc3-c3ccccc3)[C@@H](OC)O[C@@H]2CO)c1"
f

What is the recorded call for this molecule in the test? "C=CCNC(=O)[C@@H]1[C@H]2C(=O)O[C@H](c3ccccc3)[C@H](c3ccccc3)N2[C@H](c2ccc(O)cc2)[C@@]12C(=O)Nc1ccc(C#CCNC(N)=O)cc12"
f

What is the recorded call for this molecule in the test? "O=C1O[C@H](c2ccccc2)[C@H](c2ccccc2)N2[C@H]1[C@@H](C(=O)N1CCCCCCC1)[C@]1(C(=O)Nc3ccc(C#CC4=CCCCC4)cc31)[C@H]2c1ccc(OCCO)cc1"
t

What is the recorded call for this molecule in the test? C[C@H]1C2[C@H](Cc3ccccc3)NC(=O)[C@]23C(=O)N[C@H](Cc2ccccc2)C(=O)N2CCC[C@H]2C(=O)NC/C=C\C/C=C/C3[C@@H]2O[C@]12C (stereo partly drawn)
f

What is the recorded call for this molecule in the test? CCCc1cc2c(n1Cc1cc(F)cc(F)c1)C(C)C1CN(C(=O)c3ccccc3)C(C)(C(=O)OC)C21 (stereo not drawn)
f

What is the recorded call for this molecule in the test? "[N-]=[N+]=Nc1ccccc1[C@@H]1OC(c2ccc(OCCCO)cc2)=N[C@]1(Cc1ccccc1)C(=O)N1CCOCC1"
t

What is the recorded call for this molecule in the test? "COc1ccc([C@H]2OC[C@@H]3C[C@@H](Cc4ccccc4)C(=O)N32)cc1"
f

What is the recorded call for this molecule in the test? "O=C1N[C@@H](Cc2ccccc2)C(=O)N2[C@@H]1C[C@@H](C(=O)O)[C@H]2c1cccc(OCCO)c1"
f

What is the recorded call for this molecule in the test? "COCCOC(=O)N1C(=O)[C@@]2(c3cc(C#CCC(C(=O)OC)C(=O)OC)ccc31)[C@H](c1ccccc1OCCO)N1[C@H](c3ccccc3)[C@H](c3ccccc3)OC(=O)[C@H]1[C@@H]2C(=O)N1CCN(c2ncccn2)CC1"
f

What is the recorded call for this molecule in the test? "C[C@@]1([C@@H](NC(=O)c2ccc(-c3ccccc3)cc2)c2ccc(Cl)cc2)C[C@H]1C1CCCCC1"
t

What is the recorded call for this molecule in the test? "CCCC=C(CCC)[C@@H](NC(=O)c1cccs1)c1ccc(C(F)(F)F)cc1"
f

What is the recorded call for this molecule in the test? C=CC1(C(=O)OC)CC=C(C(=O)OC)CC1 (stereo not drawn)
f

----------
# protocolText: small-molecule binders of probe aNOTCH2, primary screen, biochemical, small-molecule microarray, 635/667 nm fluorescence (AID 1121);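 note: score merges feature fluorescence read at 667 nm with its signal to noise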
# appliedConditions: higher = more signal
recordedMetric: composite z-score

Give the measured composite z-score of "CCOC(=O)C[C@H]1[C@H](OC(=O)c2cc3ccccc3oc2=O)[C@@H](NC(=O)c2ccccc2)c2cc(OCCCO)ccc2N1C(=O)c1ccc2ccccc2n1" .
0.655

Give the measured composite z-score of "CC[C@@H]1C=C(C(=O)O)[C@H](c2ccc(Br)cc2)N1S(=O)(=O)c1ccc(C)cc1" .
-0.0649

Give the measured composite z-score of "CCC[C@@H]1C[C@@]1(CCC)[C@@H](NS(=O)(=O)c1cccc2cccnc12)c1ccc(Cl)cc1" .
-0.106

As a next step, examine the compound that follows.
Give the measured composite z-score of "CCCCCCc1nc(-c2cc(C)c(OC)c(C)c2)cc2c1[Si](C(C)C)(C(C)C)OC2" .
-0.113

----------
# protocolText: COS7 lysate on small-molecule microarray, probe aHis, 635 nm (AID 1123);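 note: z-score combines 667nm fluorescence intensity with signal-to-noise per printed compound spot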
# appliedConditions: COS7 cell lysate, fluorescence, higher = more signal
recordedMetric: composite z-score
Answers are plain numbers.

Use the examples below as a reference point.
Give the measured composite z-score of "COCCOC(=O)N1C(=O)[C@@]2(c3cc(C#CCCO)ccc31)[C@H](C(N)=O)[C@H]1C(=O)O[C@H](c3ccccc3)[C@H](c3ccccc3)N1[C@@H]2c1ccc(O)cc1" .
0.387

Give the measured composite z-score of "CC(C)CNC(=O)[C@@]1(Cc2ccccc2I)c2ccccc2C(=O)N(C2CCCCC2)[C@H]1c1ccc(CO)cc1" .
2.1

I would be grateful if you could provide composite z-score for each of the following entries.
1. COCCOC(=O)N1C(=O)[C@@]2(c3cc(C#CC4(O)CCCCCC4)ccc31)[C@H](c1ccccc1OCCO)N1[C@H](c3ccccc3)[C@H](c3ccccc3)OC(=O)[C@H]1[C@@H]2C(=O)N1CCN(c2ncccn2)CC1
2. COC(=O)[C@@]1(Cc2ccc(OC)cc2)[C@H]2c3cc(C(=O)N(C)C)n(C)c3C[C@H]2CN1C(=O)c1ccccc1
3. COc1ccc(C#Cc2ccc3c(c2)[C@]2(C(=O)N3)[C@H](c3ccccc3OCCO)N3[C@H](c4ccccc4)[C@H](c4ccccc4)OC(=O)[C@H]3[C@@H]2C(=O)Nc2nc3ccccc3s2)cc1
4. COc1ccc(CCNC(=O)[C@@H]2c3ccccc3C(=O)N(Cc3ccccc3Cl)[C@H]2c2ccc(CO)cc2)cc1
5. C=CCN1C(=O)[C@@]2(Cc3ccccc31)N=C(c1ccc(OCCCO)cc1)O[C@H]2c1ccccc1

1.12
3.16
0.646
1.47
2.8
